Experiment: Inhibition of specific binding of [125I]angiotensin II (0.2 nM) to angiotensin II receptor in bovine adrenal cortex
Format: tissue-based, Bos taurus
Kindly supply the reported pIC50 values for the records listed here.
On this scale, pIC50 is minus log10 of a concentration expressed in M (mol/L).

**Q:** Quick check: pIC50 of "CSc1nc2cccc(C(=O)O)c2n1Cc1ccc(-c2ccccc2-c2nsc(O)n2)cc1" ?
**A:** 6.30

**Q:** Try this molecule next: "CCCCc1nc2cccc(C(=O)OC)c2n1Cc1ccc(-c2ccccc2-c2nn[nH]n2)cc1"
**A:** 6.49

**Q:** Entry "CCc1nc2cccc(C(=O)O)c2n1Cc1ccc(-c2ccccc2-c2nsc(O)n2)cc1" please
**A:** 7.16

**Q:** Try this molecule too: "CCCCc1nc2cccc(C(=O)O)c2n1Cc1ccc(-c2ccccc2-c2noc(O)n2)cc1"
**A:** 6.21

**Q:** Subsequent entry: "CCCCc1nc2cccc(C(=O)O)c2n1Cc1ccc(-c2ccccc2-c2nn[nH]n2)cc1"
**A:** 6.26

**Q:** Entry CCOc1nc2cccc(C(=O)O)c2n1Cc1ccc(-c2ccccc2-c2noc(=O)[nH]2)cc1 [AZILSARTAN] please
**A:** 6.38

**Q:** Then what about the molecule "CSc1nc2cccc(C(=O)O)c2n1Cc1ccc(-c2ccccc2-c2noc(S)n2)cc1" ?
**A:** 6.00

**Q:** Now give it for "CCOc1nc2cccc(C(=O)OC)c2n1Cc1ccc(-c2ccccc2-c2noc(O)n2)cc1" too.
**A:** 6.36

**Q:** Thanks! And "CCSc1nc2cccc(C(=O)O)c2n1Cc1ccc(-c2ccccc2-c2nsc(O)n2)cc1" ?
**A:** 6.33

**Q:** Thanks! And "Cc1nc2cccc(C(=O)O)c2n1Cc1ccc(-c2ccccc2-c2nsc(O)n2)cc1" ?
**A:** 6.01

**Q:** Another: "CCSc1nc2cccc(C(=O)O)c2n1Cc1ccc(-c2ccccc2-c2noc(S)n2)cc1"
**A:** 6.16

**Q:** Entry "CCCCc1nc2cccc(C(=O)O)c2n1Cc1ccc(-c2ccccc2-c2nsc(O)n2)cc1" please
**A:** 6.14

**Q:** Likewise for "CCc1nc2cccc(C(=O)O)c2n1Cc1ccc(-c2ccccc2-c2noc(S)n2)cc1" ?
**A:** 6.47

**Q:** Would you mind doing "CCCCc1nc2cccc(C(=O)OC)c2n1Cc1ccc(-c2ccccc2-c2noc(O)n2)cc1" as well?
**A:** 6.05

**Q:** Entry "CCOc1nc2cccc(C(=O)OC)c2n1Cc1ccc(-c2ccccc2-c2nsc(O)n2)cc1" please
**A:** 6.12
